Kindly find below pKi information for 5-hydroxytryptamine receptor 7 (Homo sapiens, UniProt P34969) taken from the literature.
Remember, pKi is on a log scale: it is -log10 of the molar concentration.

compound	reported property	reading
O=S(=O)(c1cccc2ncccc12)N1CCC(CCN2CCN(c3cccc(Cl)c3)CC2)CC1	pKi	7.43
Cc1cccc2c1-c1ccc(C(=O)N=C(N)N)cc1C2(C)O.Cl (stereo unspecified)	pKi	8.40
O=c1n(Cc2ccc(CN3CCN(c4cccc(Cl)c4)CC3)cc2)nc2ccccn12	pKi	5.46
O=C1CC(c2c[nH]c3ccccc23)C(=O)N1CCN1CCC(c2c[nH]c3ccc(F)cc23)CC1 (racemic)	pKi	5.93
O=S(=O)(c1cccc2ncccc12)N1CCC(CCN2CCN(c3ccccc3)CC2)CC1	pKi	6.68
CNC(=O)c1cc(Oc2ccc(NC(=O)Nc3ccc(Cl)c(C(F)(F)F)c3)cc2)ccn1	pKi	5.15
CCOc1ccccc1C(=O)NC1CCN(CCOc2cccc(NC(C)=O)c2)C1 (stereo unspecified)	pKi	5.47
Cc1ccccc1C(=O)NC1CCN(CCSc2cccc(Cl)c2Cl)CC1	pKi	6.09

Summary line: `COc1ccc2c(=O)c3cccc(CN4CCN(c5ccccc5OC)CC4)c3oc2c1.Cl` , 5-hydroxytryptamine receptor 7 (Homo sapiens, UniProt P34969), reported pKi = 6.71

Param item: CCC(Sc1cc(Cl)ccc1Cl)c1nc(N)nc(N2CCNCC2)n1 (racemic) ; param system: 5-hydroxytryptamine receptor 7 (Homo sapiens, UniProt P34969); output pKi: 5.25

Reported pKi (5-hydroxytryptamine receptor 7 (Homo sapiens, UniProt P34969)) for entry `CN1CCN(c2nc(N)nc(CCCOc3cccc(Cl)c3Cl)n2)CC1` is 5.07

Tested system 5-hydroxytryptamine receptor 7 (Homo sapiens, UniProt P34969); pKi recorded for O=C1C2CC=CCC2C(=O)N1C1CCC(N2CCN(c3cccc(C(F)(F)F)c3)CC2)CC1 (stereo unspecified) was 6.47

Recorded pKi for `O=C(CCNCc1ccccc1)NCc1ccccc1` on 5-hydroxytryptamine receptor 7 (Homo sapiens, UniProt P34969) was 6.75

The compound `NC(=O)[C@@H]1Cc2ccccc2CN1C(=O)CCCCCN1CCN(c2ccc(F)cc2)CC1` on 5-hydroxytryptamine receptor 7 (Homo sapiens, UniProt P34969): pKi was 6.97

The reported 5-hydroxytryptamine receptor 7 (Homo sapiens, UniProt P34969) pKi of Cc1ccc(N2CCN(CC(O)CN3C(=O)NC(C)(c4ccc(F)cc4)C3=O)CC2)cc1C (stereo unspecified) is 6.75

* * *

Listing of Ki toward 5-hydroxytryptamine receptor 7 (Homo sapiens, UniProt P34969), each taken from a published source.

Observe how each entry below is paired with its result.
compound	Ki
O=C([C@@H]1Cc2ccccc2CN1C(=O)CCCCN1CCN(c2ccccc2-c2ccccc2)CC1)N1CCOCC1	9 nM
CC1(c2ccc(F)cc2)NC(=O)N(CC(O)CN2CCN(c3ccccc3C#N)CC2)C1=O (configuration not stated)	14 nM
CN1CCN(c2nc(N)nc(COc3cccc(Cl)c3)n2)CC1	5820 nM

Shifting focus to the compound that follows.
Ki reported for this compound `Cl.O=C(Nc1ccc2[nH]nc(S(=O)(=O)c3cccc4ccccc34)c2c1)C1CCNCC1` : > 5000 nM

* * *

The following molecules were reported with Ki values on 5-hydroxytryptamine receptor 7 (Homo sapiens) in different studies.
Sequence (P34969 whole entry): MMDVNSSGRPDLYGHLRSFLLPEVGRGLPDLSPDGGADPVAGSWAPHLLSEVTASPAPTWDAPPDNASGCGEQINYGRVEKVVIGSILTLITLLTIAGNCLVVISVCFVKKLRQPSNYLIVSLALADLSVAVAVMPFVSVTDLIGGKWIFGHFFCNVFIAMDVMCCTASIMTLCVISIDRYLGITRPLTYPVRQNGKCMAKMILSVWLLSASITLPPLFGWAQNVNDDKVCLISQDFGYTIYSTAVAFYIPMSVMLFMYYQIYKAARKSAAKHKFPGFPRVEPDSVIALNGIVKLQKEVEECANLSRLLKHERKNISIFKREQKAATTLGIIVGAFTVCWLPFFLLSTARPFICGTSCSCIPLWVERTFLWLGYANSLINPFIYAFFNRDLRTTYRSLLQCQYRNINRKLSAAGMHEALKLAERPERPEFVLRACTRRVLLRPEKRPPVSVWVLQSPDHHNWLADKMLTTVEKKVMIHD

molecule	reading
NC(N)=NC(=O)c1ccc2c(c1)-c1ccccc1C2O (stereo not drawn)	> 1 µM
NC(N)=NC(=O)c1ccc2c(c1)C(O)c1cc(Cl)ccc1-2 (stereo not drawn)	> 1 µM

Form field, Ki with 5-hydroxytryptamine receptor 7 (Homo sapiens), item `Cc1cc(C)cc(N2CCN(Cc3ccccc3-c3ccccc3)CC2)c1` : > 10 µM

* * *

Literature roundup of 5-hydroxytryptamine receptor 7 (Homo sapiens, UniProt P34969) data, read-out pKi.
pKi: −log10 of the molar value.
Use 7 as the dividing line for pKi, with the line itself on the satisfied side and lower values as not satisfied.

Some solved cases for reference:
compound	class assignment
CC(C)(CCCN1CCCC(c2cnco2)C1)S(=O)(=O)c1ccccc1 (racemic)	satisfied
CN1CCN(c2cc(-c3ccc(C#N)cc3)nc(N)n2)CC1	not satisfied
O=C1CC(c2c[nH]c3ccccc23)C(=O)N1CCCCN1CCC(c2c[nH]c3ccc(F)cc23)CC1 (racemic)	not satisfied
COc1cc2ncnc(N3CCC(CN4CCN(c5cccc(Cl)c5)CC4)C3)c2cc1OC (configuration not stated)	not satisfied
CN(C)CCSc1cccc(Br)n1	satisfied

Please turn your attention to the following entry.
Reported pKi at or above 7? `CN1CCN(c2ccc3[nH]c(C(=O)c4ccc5ccccc5c4)nc3c2)CC1`
not satisfied

* * *

Target or system 5-hydroxytryptamine receptor 7 (Homo sapiens); metric pKi; compiled from varied reports.
pKi: −log10 of the molar value.

Examples with answers:
compound	reading
Fc1ccc2c(c1)CC(CC1CN=CN1)C2 (centres undefined)	< 6.00
Cc1cccc(N2CCN(Cc3ccccc3-c3ccccc3)CC2)c1C	< 5.00
C[C@H](Nc1cccc(NCCOc2ccccc2)c1)c1ccccc1	< 6.00

Now examine the next entry.
`c1ccc(-c2ccc(N3CCN(Cc4c[nH]c5ncccc45)CC3)cc2)cc1` tested on 5-hydroxytryptamine receptor 7 (Homo sapiens) gave pKi: < 5.00

* * *

pKi: −log10 of the molar value.
Dear all, I have gathered published pKi values for 5-hydroxytryptamine receptor 7 (Homo sapiens, UniProt P34969); the list follows.

Observe how each entry below is paired with its result.
compound string	reading
Fc1cccc2c1nc(OCC1CCN(CCCC(F)(F)F)CC1)c1cccnc12	< 5.00
Fc1cccc(N2CCN(Cc3ccccc3-c3ccccc3)CC2)c1	< 5.00

Proceed to the following item.
# compound `COc1cccc(OC)c1-c1cnnc(CCN(C)C)n1` ; its pKi = < 5.00

* * *

// note: log10 Ki values for 5-hydroxytryptamine receptor 7 (Homo sapiens) were reported in different studies
Recall that a logarithmic scale is used here: each number is log10 of Ki in nM.

compound	log10 Ki
CC1c2ccccc2-c2ccc(C(=O)N=C(N)N)cc21.Cl (centres undefined)	0.61
Cn1cc(S(=O)(=O)NC2CN(CCOc3ccccc3-c3ccccc3)C2)cn1	1.60
CN(/C=N/c1ccc2c(c1)C(O)CC2)Cc1ccccc1 (centres undefined)	3.56
COc1ccccc1N1CCN(CCCC(=O)NCc2ccccc2-c2ccccc2)CC1	1.81

Value (log10 Ki, 5-hydroxytryptamine receptor 7 (Homo sapiens)) for record `CCOC(=O)c1cccc(NC2=NC(N(C)C)=NC3(CCCCC3)N2)c1` = 2.71

The compound O=C1Nc2ccccc2C12CCN(CCN1CCC(Oc3ccc(Cl)cc3)CC1)C2 (centres undefined) , when measured on 5-hydroxytryptamine receptor 7 (Homo sapiens), yielded log10 Ki of 2.08

# `Fc1ccc(-c2n[nH]c3c2CCNCC3)cc1` with 5-hydroxytryptamine receptor 7 (Homo sapiens): log10 Ki is 2.02

Considering `Cc1sc2ncn(CCCCCN3CCN(c4ccc(Cl)cc4)CC3)c(=O)c2c1C` , its log10 Ki with 5-hydroxytryptamine receptor 7 (Homo sapiens) was recorded as 2.33

Reading of log10 Ki for `c1ccc2c(OCCCCCN3CCCCCC3)cccc2c1` with 5-hydroxytryptamine receptor 7 (Homo sapiens): 3.45

Form: item CC1(c2ccccc2)NC(=O)N(CC(O)CN2CCN(c3ccccc3C#N)CC2)C1=O.Cl (racemic) ; test system 5-hydroxytryptamine receptor 7 (Homo sapiens); log10 Ki: 1.08

So the reported log10 Ki for `O=C(CCN1CCCN(c2cnc3ccccc3n2)CC1)c1csc2ccccc12` , on 5-hydroxytryptamine receptor 7 (Homo sapiens), turned out to be 3.98

For the compound `O=S(=O)(NCC1CCN(CCOc2cccc(F)c2)CC1)c1cccc(Cl)c1` , the measured log10 Ki on 5-hydroxytryptamine receptor 7 (Homo sapiens) was 3.34

* * *

Several reports have described Ki for 5-hydroxytryptamine receptor 7 (Homo sapiens, UniProt P34969); a selection of those results is presented here.
The reply should be a number in µM, with the unit left off.

molecule	reading
CN(C)CCSc1ccnc(-c2ccccc2)c1	0.1
Cc1ccccc1C(=O)NC1CCN(CCOc2ccccc2-c2ccccc2)C1 (stereo not drawn)	0.059
O=C(NC1CCN(CCOc2ccccc2-c2ccccc2)C1)c1cccc(F)c1F (stereo not drawn)	0.021
CCC(Oc1cccc(Cl)c1Cl)c1nc(N)nc(N2CCN(C)CC2)n1 (racemic)	5.2
CCC(Oc1cc(C(F)(F)F)ccc1F)c1nc(N)nc(N2CCN(C)CC2)n1 (stereo not drawn)	18.8

Ki for 5-hydroxytryptamine receptor 7 (Homo sapiens, UniProt P34969) with input CC(=O)OC1CCCc2ccc(/N=C/N3CCc4ccccc4C3)cc21 (stereo not drawn) equals 0.2

Bench note, 5-hydroxytryptamine receptor 7 (Homo sapiens, UniProt P34969): `CC(C)c1ccccc1OCCN1CCC(NS(=O)(=O)c2cccnc2)CC1` , Ki reads 0.072

Measured Ki for this entry O=C1Nc2ccccc2C1CCCCN1CCN(c2ccccc2)CC1 (stereo not drawn) on 5-hydroxytryptamine receptor 7 (Homo sapiens, UniProt P34969): 0.016

Value (Ki, 5-hydroxytryptamine receptor 7 (Homo sapiens, UniProt P34969)) for record CC(Nc1nccc(NCCOc2ccc(F)cc2)n1)c1ccccc1 (racemic) = 0.001

# value of Ki, 5-hydroxytryptamine receptor 7 (Homo sapiens, UniProt P34969), item Oc1c(F)cccc1CC1NCCc2c1[nH]c1ccccc21 (stereo not drawn) = 0.046

Item: CC(C)c1ccccc1OCC(O)CN1CCC(NS(=O)(=O)c2ccc(F)cc2)CC1 (stereo not drawn) | System: 5-hydroxytryptamine receptor 7 (Homo sapiens, UniProt P34969) | Ki: 0.104

Note to self: Ki of CC(Nc1nc(N)nc(NCCOc2ccccc2)n1)c1ccccc1 (racemic) with 5-hydroxytryptamine receptor 7 (Homo sapiens, UniProt P34969) was 0.008

5-hydroxytryptamine receptor 7 (Homo sapiens, UniProt P34969) assay, molecule `CC(C)c1ccccc1N1CCN(CCCCCCC(=O)N2CCC[C@H]2C(=O)N2CCOCC2)CC1` , recorded Ki = 0.135

Bench note, 5-hydroxytryptamine receptor 7 (Homo sapiens, UniProt P34969): CC(Oc1cc(Cl)ccc1Cl)c1nc(N)nc(N2CCN(C)CC2)n1 (racemic) , Ki reads 15

The molecule `Cc1ccc2c(OCCN3CCC(Cc4cc(F)c5c(c4)NC(=O)CO5)CC3)cc(Cl)cc2n1` , when measured on 5-hydroxytryptamine receptor 7 (Homo sapiens, UniProt P34969), yielded Ki of 0.0794

`CN1CCc2[nH]c3ccc(S(=O)(=O)Nc4cccc(F)c4)cc3c2C1` on 5-hydroxytryptamine receptor 7 (Homo sapiens, UniProt P34969) gives Ki = 0.042

For `CN(C)CCN(Cc1ccc(-c2ccc(CNCCc3ccccc3)cc2)cc1)C(=O)CCC1CCCC1` on 5-hydroxytryptamine receptor 7 (Homo sapiens, UniProt P34969), measured Ki was 3.98

The reported Ki value, 5-hydroxytryptamine receptor 7 (Homo sapiens, UniProt P34969), for CC(=O)OC1CCc2ccc(/N=C/N3CCc4ccccc4C3)cc21 (stereo not drawn) reads 0.1

Ki for 5-hydroxytryptamine receptor 7 (Homo sapiens, UniProt P34969) with input O=C1CC(c2c[nH]c3ccc(F)cc23)C(=O)N1CCCCN1CCC(c2c[nH]c3ccccc23)CC1 (stereo not drawn) equals 0.05

Readout Ki for `C[C@H](Nc1nc(NCCOc2ccccc2)nc(N(C)C)n1)c1ccccc1` , test system 5-hydroxytryptamine receptor 7 (Homo sapiens, UniProt P34969), was 0.023
